experiment: in vivo; settings: male, Beagle, dog, plasma, sc, 20 ug/kg
Metric name: AUC(0-inf) (µM·h)

Smiles entry	Unit tag	Endpoint result
CC[C@H](C)[C@@H]1NC(=O)[C@H](CC(=O)O)NC(=O)[C@H](CC(C)C)NC(=O)c2ccc(-c3ccc(N4CCN(C(=O)c5ccccc5-c5ccccc5C(=O)N5CCN(c6ccc(-c7ccc8cc7CNC(=O)[C@@H]7CCCN7[C@H](C(=O)NC(C)(C)C)[C@H](C)NC(=O)[C@H]([C@@H](C)CC)NC(=O)[C@H](CC(=O)O)NC(=O)[C@H](CC(C)C)NC8=O)cc6)CC5)CC4)cc3)c(c2)CNC(=O)[C@@H]2CCCN2[C@H](C(=O)NC(C)(C)C)[C@H](C)NC1=O	µM·h	5.68

----------
experiment: in vivo; settings: male, Beagle, dog, plasma, sc, 100 ug/kg

Smiles entry	AUC(0-inf) / µM·h
CC[C@H](C)[C@@H]1NC(=O)[C@H](CC(=O)O)NC(=O)[C@H](CC(C)C)NC(=O)c2ccc(-c3ccc(N4CCN(C(=O)c5ccccc5-c5ccccc5C(=O)N5CCN(c6ccc(-c7ccc8cc7CNC(=O)[C@@H]7CCCN7[C@H](C(=O)NC(C)(C)C)[C@H](C)NC(=O)[C@H]([C@@H](C)CC)NC(=O)[C@H](CC(=O)O)NC(=O)[C@H](CC(C)C)NC8=O)cc6)CC5)CC4)cc3)c(c2)CNC(=O)[C@@H]2CCCN2[C@H](C(=O)NC(C)(C)C)[C@H](C)NC1=O	58.6

----------
test: in vivo; details: male, Beagle, dog, plasma, sc, 10 ug/kg

Compound	Cmax [nM]
CC[C@H](C)[C@@H]1NC(=O)[C@H](CC(=O)O)NC(=O)[C@H](CC(C)C)NC(=O)c2ccc(-c3ccc(N4CCN(C(=O)c5ccccc5-c5ccccc5C(=O)N5CCN(c6ccc(-c7ccc8cc7CNC(=O)[C@@H]7CCCN7[C@H](C(=O)NC(C)(C)C)[C@H](C)NC(=O)[C@H]([C@@H](C)CC)NC(=O)[C@H](CC(=O)O)NC(=O)[C@H](CC(C)C)NC8=O)cc6)CC5)CC4)cc3)c(c2)CNC(=O)[C@@H]2CCCN2[C@H](C(=O)NC(C)(C)C)[C@H](C)NC1=O [Compound 1]	18.1

----------
Test: in vivo
Settings: male, Beagle, dog, plasma, sc, 200 ug/kg
Procedure: Beagle dogs (males with a body weight of approximately 10-12 kg) were given a single subcutaneous (s.c.) injection of the peptides to be tested. […] Plasma samples were analyzed after protein precipitation by liquid chromatography mass spectrometry (LC-MS/MS). […] Plasma terminal elimination half-life (T½) was determined as ln(2)/λz where λz is the magnitude of the slope of the log linear regression of the log concentration versus time profile during the terminal phase. […]
Metric name: half-life (h)

Compound	Endpoint result
CC[C@H](C)[C@@H]1NC(=O)[C@H](CC(=O)O)NC(=O)[C@H](CC(C)C)NC(=O)c2ccc(-c3ccc(N4CCN(C(=O)c5ccccc5-c5ccccc5C(=O)N5CCN(c6ccc(-c7ccc8cc7CNC(=O)[C@@H]7CCCN7[C@H](C(=O)NC(C)(C)C)[C@H](C)NC(=O)[C@H]([C@@H](C)CC)NC(=O)[C@H](CC(=O)O)NC(=O)[C@H](CC(C)C)NC8=O)cc6)CC5)CC4)cc3)c(c2)CNC(=O)[C@@H]2CCCN2[C@H](C(=O)NC(C)(C)C)[C@H](C)NC1=O [Compound 1]	230

Just for reference, patent US11957761B2 is where these values come from.
